- test_description: Single-dose toxicokinetic and tolerability study of prodrugs in dogs
- Assay type: in vivo, dog
- reported_conditions: male, dog, plasma, oral, 25 mg/kg, dog 2101M, day 1, Ibb 25 mg/kg QD dry-filled capsules; read-out: C24h
- Protocol: A multi-phase study was conducted to evaluate the tolerability of the prodrug, Iab (monolysine salt) at dosages of 24, 90, or 240 mg/kg (free acid, molar equivalent to 19, 71, or 190 mg/kg of parent IVa, respectively) and the toxicokinetics of lab and IVa (4). Iab was administered to two female dogs/group once daily either as an aqueous solution (24 or 90 mg/kg) or dry-filled capsules (24, 90 [once and twice daily] or 240 mg/kg). […]
experimental_endpoint: concentration at 24 h (nM)
# output: bare number, implied unit nM

The compound identified as `O=C(C(=O)N1CCN(C(=O)c2ccccc2)CC1)c1c[nH]c2c(-n3ccnn3)ncc(F)c12` registered its concentration at 24 h at 8

====

- test_description: IV and oral rat PK (MAP) studies A, B, C of phosphate prodrugs and parent studies A1, B1, C1
- Format: in vivo, Sprague-Dawley rats
- reported_conditions: male, Sprague-Dawley, rat, plasma, iv, 1 mg/kg, rats, historic, parent IV 1 mpk; read-out: T1/2 i.v. (converted)
Entries annotated with measured half-life
All answers are understood in h, so give the number only.

In [3]: df
Out[3]:
                                   compound  reported_value
0  O=C(C(=O)N1CCN(C(=O)c2ccccc2)CC1)c1c[nH]c2c(-n3ccnn3)ncc(F)c12 [IVb]             5.9

Now for another entry.
half-life for COc1ncc(OC)c2c(C(=O)C(=O)N3CCN(C(=O)c4ccccc4)CC3)c[nH]c12 [IVa] is 4

====

- test_description: Single-dose toxicokinetic and tolerability study of prodrugs in dogs
- Format: in vivo, dog
- reported_conditions: female, dog, plasma, po, 125 mg/kg, dog 4201F, day 8, Icb 125 mg/kg BID dry-filled capsules; emesis
experimental_endpoint: Cmax (µM)
All answers are understood in µM, so give the number only.

Record `COc1cnc(-n2cnc(C)n2)c2[nH]cc(C(=O)C(=O)N3CCN(C(=O)c4ccccc4)CC3)c12` , field Cmax: 96.9

====

- test_description: Effect of food on oral absorption of IVa in dogs after Iab or IVa capsules
- Type: in vivo, dog
- reported_conditions: dog, in vivo, po, 20 mg/kg, dogs, IVa Clinical Form Capsules, Fed
experimental_endpoint: Cmax (µM)
Reply with just the number (in µM).

Looking up COc1ncc(OC)c2c(C(=O)C(=O)N3CCN(C(=O)c4ccccc4)CC3)c[nH]c12 [IVa] , I found its Cmax recorded as 11

====

- test_description: Oral dose escalation study in rats (Study D of Ica; historical Study E of IVc)
- Format: in vivo
- reported_conditions: male, Sprague-Dawley, rat, plasma, po, 5 mg/kg
experimental_endpoint: Cmax (µM)
Give a bare numeral; the unit µM is implied.

The reported value for `COc1cnc(-n2cnc(C)n2)c2[nH]cc(C(=O)C(=O)N3CCN(C(=O)c4ccccc4)CC3)c12` in terms of Cmax is 29

====

- test_description: Single-dose oral toxicokinetic study of prodrugs in rats
- Type: in vivo, rat
- reported_conditions: male, Sprague Dawley, rat, plasma, po, 64 mg/kg; read-out: AUC from zero to ∞
- Method: A 1-day oral toxicokinetic study in rats was conducted using the prodrug Iab (monolysine salt). Iab was administered at dosages of 16, 72, and 267 mg/kg (free acid) by oral gavage to three male rats/group using water as the vehicle (solution formulation). The dosages of prodrug free acid correspond to IVa (parent) molar equivalent dosages of 13, 57, and 211 mg/kg, respectively. The endpoint evaluated was plasma toxicokinetics of Iab and IVa in the individual rats. […]
experimental_endpoint: AUC (µM·h)
Reply numerically in µM·h, unit not repeated.

AUC recorded for this compound, O=C(C(=O)N1CCN(C(=O)c2ccccc2)CC1)c1c[nH]c2c(-n3ccnn3)ncc(F)c12 [IVb] , is 997

====

- test_description: IV and PO pharmacokinetic studies of prodrug salts (Iab, Ibb, Icb) in the dog, with historical parent data
- Type: in vivo, beagle dogs
- reported_conditions: beagle, plasma, historical parent, PO 5 mg/kg, read-out: Bioavailability (%)
Overview of reported bioavailability across a group of compounds:
Please reply with the bare figure in % and do not write the unit itself.

                                   compound  unit_spec  reported_value
0  COc1cnc(-n2cnc(C)n2)c2[nH]cc(C(=O)C(=O)N3CCN(C(=O)c4ccccc4)CC3)c12 [IVc]          %              89

Proceeding to the next compound to report its bioavailability.
O=C(C(=O)N1CCN(C(=O)c2ccccc2)CC1)c1c[nH]c2c(-n3ccnn3)ncc(F)c12 [IVb] has a reported bioavailability of 179

====

- test_description: Oral dose escalation study in rats (Study D of Ica; historical Study E of IVc)
- Assay type: in vivo
- reported_conditions: Sprague-Dawley, rat, plasma, po, 200 mg/kg; read-out: Mean AUCtot
experimental_endpoint: AUC (µM·h)
Use µM·h as the unit, but write only the number.

Record `COc1cnc(-n2cnc(C)n2)c2[nH]cc(C(=O)C(=O)N3CCN(C(=O)c4ccccc4)CC3)c12` . Reported AUC: 518

====

- test_description: physchem
- reported_conditions: aqueous, aqueous buffer, thermodynamic from solid
Quick list: solubility per entry.

>>> print(df.to_string())
                                   compound  experimental_endpoint  reported_value
0  O=C(C(=O)N1CCN(C(=O)c2ccccc2)CC1)c1c[nH]c2c(-n3ccnn3)ncc(F)c12 [IVb]             solubility  7 to 190 µg/mL

Let us move to another entry and its solubility.
Quick note, solubility for COc1ncc(OC)c2c(C(=O)C(=O)N3CCN(C(=O)c4ccccc4)CC3)c[nH]c12 [IVa] landed at 40 to 900 µg/mL

====

- test_description: in vitro
- reported_conditions: rat, serum
experimental_endpoint: half-life at 15 μM (h)
Please respond with the number in h and leave the unit unwritten.

For this molecule ( O=C(C(=O)N1CCN(C(=O)c2ccccc2)CC1)c1cn(COP(=O)(O)O)c2c(-n3ccnn3)ncc(F)c12 [Ibb] ), measured half-life at 15 μM is 11.7

====

- test_description: Single-dose toxicokinetic and tolerability study of prodrugs in dogs
- Assay type: in vivo, dog
- reported_conditions: male, dog, plasma, po, 92 mg/kg, dog 3101M, day 1, Ibb 92 mg/kg QD dry-filled capsules; read-out: T1/2 (converted)
experimental_endpoint: half-life (h)
Numeric answer only, unit h assumed.

Kindly note the recorded half-life for `O=C(C(=O)N1CCN(C(=O)c2ccccc2)CC1)c1c[nH]c2c(-n3ccnn3)ncc(F)c12` , which is 3.6

====

- test_description: IV and PO pharmacokinetic studies of prodrug salts (Iab, Ibb, Icb) in the monkey, with historical parent data
- Type: in vivo, cynomolgus monkeys
- reported_conditions: cynomolgus monkey, plasma, oral, 5 mg/kg; read-out: C-24 hr
experimental_endpoint: concentration at 24 h (nM)
Report the figure in nM without appending any unit label.

According to the records, this compound O=C(C(=O)N1CCN(C(=O)c2ccccc2)CC1)c1c[nH]c2c(-n3ccnn3)ncc(F)c12 [IVb] displays concentration at 24 h of 240

====

// reported clearance for each item listed
- test_description: IV and PO pharmacokinetic studies of prodrug salts (Iab, Ibb, Icb) in the monkey, with historical parent data
- Type: in vivo, cynomolgus monkeys
- reported_conditions: male, cynomolgus monkey, plasma; monkey, prodrug after IV administration; read-out: CLtot (mL/min/kg), IV
Write the answer as a number in mL/min/kg, unit excluded.

In [3]: df
Out[3]:
                                chem_smiles  reported_value
0  COc1cnc(OC)c2c1c(C(=O)C(=O)N1CCN(C(=O)c3ccccc3)CC1)cn2COP(=O)(O)O             4.4

Turning now to a further record.
// field: clearance; key: `O=C(C(=O)N1CCN(C(=O)c2ccccc2)CC1)c1cn(COP(=O)(O)O)c2c(-n3ccnn3)ncc(F)c12` ; value = 28

====

- test_description: IV and PO pharmacokinetic studies of prodrug salts (Iab, Ibb, Icb) in the monkey, with historical parent data
- Format: in vivo, cynomolgus monkeys
- reported_conditions: cynomolgus monkey, plasma; monkey, historical parent, PO 5 mg/kg; read-out: t1/2 (hr), PO (converted)
experimental_endpoint: half-life (h)
# unit: h | format: bare number

The reported half-life of the compound `COc1ncc(OC)c2c(C(=O)C(=O)N3CCN(C(=O)c4ccccc4)CC3)c[nH]c12` was 4.2

====

- test_description: Single-dose oral toxicokinetic study of prodrugs in rats
- Assay type: in vivo, rat
- reported_conditions: male, CD, rat, plasma, po, 200 mg/kg
experimental_endpoint: Cmax

Reported Cmax of COc1cnc(-n2cnc(C)n2)c2[nH]cc(C(=O)C(=O)N3CCN(C(=O)c4ccccc4)CC3)c12 [IVc] : 281 µM
